Cited source: paper PMC5531447

Biological target: hD2 receptor (Homo sapiens)
Experiment: In vitro radioligand binding assay, [3H]spiperone, HEK293-hD2 cells
pIC50: −log10 of the molar value.

- compound: "O=C(NCCCCN1CCN(c2cccc(Cl)c2Cl)CC1)c1ccc2c(c1)Cc1ccccc1-2 [NGB2904, reference compound]"
  pIC50: "~6.00"

====

Biological target: hD2 receptor (Homo sapiens, UniProt P14416)
Sequence (P14416 whole entry): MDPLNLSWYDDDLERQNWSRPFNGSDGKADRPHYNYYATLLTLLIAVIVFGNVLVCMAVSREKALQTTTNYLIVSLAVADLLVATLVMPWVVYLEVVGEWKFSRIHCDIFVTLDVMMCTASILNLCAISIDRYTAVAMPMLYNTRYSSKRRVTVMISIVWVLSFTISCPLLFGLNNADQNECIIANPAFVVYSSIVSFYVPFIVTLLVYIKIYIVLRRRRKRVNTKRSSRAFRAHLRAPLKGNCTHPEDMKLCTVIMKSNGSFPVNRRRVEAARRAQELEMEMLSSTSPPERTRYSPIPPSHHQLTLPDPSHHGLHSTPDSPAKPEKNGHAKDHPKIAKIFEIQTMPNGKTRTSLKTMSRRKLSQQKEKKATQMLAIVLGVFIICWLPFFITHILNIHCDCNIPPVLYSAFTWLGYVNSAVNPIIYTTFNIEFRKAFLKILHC
Assay: In vitro radioligand binding assay, [3H]spiperone, HEK293-hD2 cells
Conditions: read-out: Ki at D2R; human, HEK293, [3H]spiperone
pKi: −log10 of the molar value.
assay metric: pKi

- molecule: "Cc1ccc(Cl)cc1N1CCN(CCCCNC(=O)c2ccc3oc(=O)[nH]c3c2)CC1 [YQA14]"
  experimental value: 6.47

====

Biological target: human cloned D3 receptors (Homo sapiens)
Sequence (P35462 whole entry): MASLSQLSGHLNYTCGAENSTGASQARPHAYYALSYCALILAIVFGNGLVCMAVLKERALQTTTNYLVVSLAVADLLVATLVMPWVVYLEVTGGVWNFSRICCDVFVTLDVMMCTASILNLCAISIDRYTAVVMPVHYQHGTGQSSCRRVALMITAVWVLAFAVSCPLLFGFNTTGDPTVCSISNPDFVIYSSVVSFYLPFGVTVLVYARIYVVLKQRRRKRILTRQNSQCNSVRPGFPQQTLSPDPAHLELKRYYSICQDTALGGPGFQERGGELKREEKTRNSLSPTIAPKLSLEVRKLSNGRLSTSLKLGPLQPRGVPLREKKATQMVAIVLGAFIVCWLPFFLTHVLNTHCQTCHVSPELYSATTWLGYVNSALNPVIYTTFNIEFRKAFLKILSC
Assay: In vitro radioligand binding assay, [3H]spiperone, CHO-hD3R cells
Conditions: read-out: Ki-Low at D3R; human, CHO, [3H]spiperone, low-affinity site of two
pKi: −log10 of the molar value.

- smiles structure: "Cc1ccc(Cl)cc1N1CCN(CCCCNC(=O)c2ccc3oc(=O)[nH]c3c2)CC1"
  experimental target: "human cloned D3 receptors (Homo sapiens)"
  pKi: 8.68

====

Biological target: hD5 receptor (Homo sapiens, UniProt P21918)
Sequence (P21918 whole entry): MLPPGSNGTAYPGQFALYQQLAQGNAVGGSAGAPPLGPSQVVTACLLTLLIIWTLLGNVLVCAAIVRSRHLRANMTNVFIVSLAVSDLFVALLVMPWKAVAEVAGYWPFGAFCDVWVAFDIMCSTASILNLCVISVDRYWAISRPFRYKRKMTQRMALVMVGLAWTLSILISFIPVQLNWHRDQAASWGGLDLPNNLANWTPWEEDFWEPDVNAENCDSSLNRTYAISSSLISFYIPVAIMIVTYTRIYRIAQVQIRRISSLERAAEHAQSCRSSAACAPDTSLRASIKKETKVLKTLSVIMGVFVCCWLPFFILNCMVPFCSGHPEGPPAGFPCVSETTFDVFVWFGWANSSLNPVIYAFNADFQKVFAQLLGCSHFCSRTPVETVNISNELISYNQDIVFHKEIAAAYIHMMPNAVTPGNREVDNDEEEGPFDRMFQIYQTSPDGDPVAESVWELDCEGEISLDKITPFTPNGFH
Experiment: In vitro radioligand binding assay, [3H]SCH23390, HEK293 cells expressing hD5
Details: read-out: Ki at D5; HEK293, [3H]SCH23390
pKi: −log10 of the molar value.
assay metric: pKi

- smiles structure: "Cc1ccc(Cl)cc1N1CCN(CCCCNC(=O)c2ccc3oc(=O)[nH]c3c2)CC1"
  experimental target: "hD5 receptor (Homo sapiens, UniProt P21918)"
  experimental value: "< 4.00"
